- Test system: RAW-Dual (murine macrophage reporter line)
- assay.details: IRF reporter (Lucia luciferase) activity fold change vs agonist alone; higher = enhanced IRF activity
- run.parameters: modulator concentration 10 µM; agonist: 3'3'-cGAMP 10 ug/mL
measurement.kind: IRF reporter

Here is how some compounds turned out for IRF reporter.
Inquiry: If you can, please state the reported IRF reporter value of `COc1ccc(CNCCc2c[nH]c3ccccc23)c(OC)c1C` .
Reply text: 1.4

Inquiry: What do we get for `CCN(CC)CCNC(=O)C(O)(c1ccccc1)c1ccccc1` ?
Reply text: 0.968

Others:
Inquiry: Give the measured IRF reporter of CC(C(O)c1ccccc1)N(C)C (centres undefined) .
Reply text: 0.995

Inquiry: Next up: Cc1noc(C)c1CC(=O)N1CCCSCC1CN1CCCC1 (centres undefined)
Reply text: 1.1

* * *

- Tested on: RAW-Dual (murine macrophage reporter line)
- assay.details: IRF reporter (Lucia luciferase) activity fold change vs agonist alone; higher = enhanced IRF activity
- run.parameters: modulator concentration 10 µM; agonist: 3'3'-cGAMP 10 ug/mL
// reported IRF reporter for each item listed
Write the value as a bare number.

Worked examples follow.
Inquiry: Could you tell me which IRF reporter is on file for COc1cc2c(cc1O)CC1c3c(cc(O)c(OC)c3-2)CCN1C (configuration not stated) ?
Reply text: 0.881

Inquiry: Also, `Cc1ccc(C)c2sc(N3CCN(C)CC3)nc12.Cl` please.
Reply text: 0.92

Inquiry: // next record `O=C(O)c1nn(Cc2ccc(Cl)cc2Cl)c2ccccc12`
Reply text: 0.926

More entries:
Inquiry: Consider the compound `Cl.N=C(N)NN` and give its measured IRF reporter.
Reply text: 0.892

Inquiry: Try `O=C(O)CC[N+](=O)[O-]` next.
Reply text: 0.912

Inquiry: Please give the result for `CN1C(=O)NC(=O)C(=Cc2ccc([N+](=O)[O-])o2)C1=O` too.
Reply text: 0.92

Inquiry: Request: COc1ccc(C(CN(C)C)C2(O)CCCCC2)cc1 (configuration not stated) [Prestw-1170]
Reply text: 0.916

Reference for the values: the supplement of paper PMC10646978
